TARGET_UNDER_TEST: TAS2R43 (Homo sapiens, UniProt P59537)
Construct: AD-293 cells; co-expressed Galpha16-gust44 chimera and mt-clytin II reporter (type 2 multigene vector)
Sequence (P59537 2-309): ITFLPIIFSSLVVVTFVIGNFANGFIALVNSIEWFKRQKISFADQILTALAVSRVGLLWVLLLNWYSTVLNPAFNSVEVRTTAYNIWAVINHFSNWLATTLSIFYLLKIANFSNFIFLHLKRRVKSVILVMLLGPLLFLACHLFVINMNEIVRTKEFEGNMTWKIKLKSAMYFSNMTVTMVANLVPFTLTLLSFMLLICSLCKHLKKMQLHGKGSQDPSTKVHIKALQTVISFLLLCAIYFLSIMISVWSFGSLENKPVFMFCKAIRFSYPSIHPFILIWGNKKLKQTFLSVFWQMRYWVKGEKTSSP
MEASUREMENT_DESCRIPTION: bioluminescence (mt-clytin II) intracellular calcium release
MEASURED_PARAMETER: pEC50
Conceptually, pEC50 converts a concentration in mol/L into minus its log10.

[[record]]
compound = "O=C1c2c(O)cccc2C([C@@H]2O[C@H](CO)[C@@H](O)[C@H](O)[C@H]2O)c2cc(CO)cc(O)c21 (stereo partly drawn) [aloin]"
obs_value = 5.30


# input Tell me pEC50 reported for Cn1c(=O)c2c(ncn2C)n(C)c1=O [caffeine]
# output 3.41

# input Tell me pEC50 reported for COc1cccc2c1cc([N+](=O)[O-])c1c(C(=O)O)cc3c(c12)OCO3 [aristolochic acid]
# output 7.59

====

TARGET_UNDER_TEST: TAS2R14 (Homo sapiens, UniProt Q9NYV8)
Sequence (Q9NYV8 whole entry): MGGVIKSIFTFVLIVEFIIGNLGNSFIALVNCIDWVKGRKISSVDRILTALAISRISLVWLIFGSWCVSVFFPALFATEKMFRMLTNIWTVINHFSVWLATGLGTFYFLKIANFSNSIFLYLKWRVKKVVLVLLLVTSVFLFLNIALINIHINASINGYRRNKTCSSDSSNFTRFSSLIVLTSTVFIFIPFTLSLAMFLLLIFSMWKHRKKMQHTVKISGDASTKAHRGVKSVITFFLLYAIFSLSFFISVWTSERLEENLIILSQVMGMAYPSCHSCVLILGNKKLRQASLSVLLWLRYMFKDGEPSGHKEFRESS
MEASUREMENT_DESCRIPTION: cell-based
MEASURED_PARAMETER: EC50 (µM)
Answer in µM, number only, no unit symbol.

# input Tell me EC50 reported for C=C(C)[C@@H]1[C@H]2OC(=O)[C@@H]1[C@]1(O)C[C@H]3O[C@]34C(=O)O[C@H]2[C@]14C [Picrotoxinin]
# output 54

====

TARGET_UNDER_TEST: TAS2R20 (Homo sapiens)
Sequence (P59543 1-309): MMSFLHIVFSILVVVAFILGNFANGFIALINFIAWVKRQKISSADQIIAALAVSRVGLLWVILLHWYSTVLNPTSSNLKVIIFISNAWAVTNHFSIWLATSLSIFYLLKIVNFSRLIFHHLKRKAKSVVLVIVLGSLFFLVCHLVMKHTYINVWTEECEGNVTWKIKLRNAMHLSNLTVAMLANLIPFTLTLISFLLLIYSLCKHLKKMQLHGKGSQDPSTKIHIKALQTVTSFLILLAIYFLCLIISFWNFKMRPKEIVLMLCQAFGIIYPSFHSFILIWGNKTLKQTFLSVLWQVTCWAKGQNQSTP
MEASUREMENT_DESCRIPTION: cell-based
Design: bioluminescence intracellular calcium release assay, mt-clytin II with coelenterazine, Gα16-gust44 co-expressed
EXPERIMENTAL_CONDITIONS: 293AD cells
MEASURED_PARAMETER: EC50 (µM)
Answer in µM, number only, no unit symbol.

# input Tell me EC50 reported for `O=C(O)c1cc(=O)c2c(OCC(O)COc3cccc4oc(C(=O)O)cc(=O)c34)cccc2o1`
# output 35

====

TARGET_UNDER_TEST: TAS2R9 (Homo sapiens, UniProt Q9NYW1)
Sequence (Q9NYW1 whole entry): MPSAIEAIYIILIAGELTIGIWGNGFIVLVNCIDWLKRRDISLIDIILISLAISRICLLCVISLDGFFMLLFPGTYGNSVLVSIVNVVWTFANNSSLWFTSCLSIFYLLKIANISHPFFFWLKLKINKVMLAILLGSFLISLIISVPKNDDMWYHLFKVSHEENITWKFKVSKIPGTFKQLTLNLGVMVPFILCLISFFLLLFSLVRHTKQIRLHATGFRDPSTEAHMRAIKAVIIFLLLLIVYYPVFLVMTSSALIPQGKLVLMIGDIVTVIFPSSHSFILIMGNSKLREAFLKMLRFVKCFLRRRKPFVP
MEASUREMENT_DESCRIPTION: cell-based
EXPERIMENTAL_CONDITIONS: 293AD cells
MEASURED_PARAMETER: EC50 (mM)
Answer in mM, number only, no unit symbol.

# input Look up and report EC50, with TAS2R9 (Homo sapiens, UniProt Q9NYW1) as system, for CN1CCN(CC(=O)N2c3ccccc3C(=O)Nc3cccnc32)CC1 [Pirenzepine]
# output 4

====

TARGET_UNDER_TEST: TAS2R8 (Homo sapiens, UniProt Q9NYW2)
Sequence (Q9NYW2 1-309): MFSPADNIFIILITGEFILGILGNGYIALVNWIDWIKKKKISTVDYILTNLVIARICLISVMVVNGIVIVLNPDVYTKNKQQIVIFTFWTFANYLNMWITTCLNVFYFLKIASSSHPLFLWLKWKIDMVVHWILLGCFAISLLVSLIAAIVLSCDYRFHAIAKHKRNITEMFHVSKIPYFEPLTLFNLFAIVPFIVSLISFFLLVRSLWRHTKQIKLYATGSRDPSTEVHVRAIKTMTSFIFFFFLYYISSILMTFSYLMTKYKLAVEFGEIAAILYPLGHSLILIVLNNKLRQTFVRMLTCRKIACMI
MEASUREMENT_DESCRIPTION: cell-based
Design: bioluminescence intracellular calcium release assay, mt-clytin II with coelenterazine, Gα16-gust44 co-expressed
EXPERIMENTAL_CONDITIONS: AD-293 cells
pEC50: recorded values
Conceptually, pEC50 converts a concentration in mol/L into minus its log10.

[[record]]
compound = "CC[N+](CC)(CC(=O)Nc1c(C)cccc1C)Cc1ccccc1 [Denatonium benzoate]"
target_under_test = "TAS2R8 (Homo sapiens, UniProt Q9NYW2)"
obs_value = 3.00


Now look at this entry.
# input Look up and report pEC50, with TAS2R8 (Homo sapiens, UniProt Q9NYW2) as system, for O=C(N[C@H](CO)[C@H](O)c1ccc([N+](=O)[O-])cc1)C(Cl)Cl [Chloramphenicol]
# output 4.15

====

TARGET_UNDER_TEST: TAS2R46 (Homo sapiens, UniProt P59540)
Sequence (P59540 whole entry): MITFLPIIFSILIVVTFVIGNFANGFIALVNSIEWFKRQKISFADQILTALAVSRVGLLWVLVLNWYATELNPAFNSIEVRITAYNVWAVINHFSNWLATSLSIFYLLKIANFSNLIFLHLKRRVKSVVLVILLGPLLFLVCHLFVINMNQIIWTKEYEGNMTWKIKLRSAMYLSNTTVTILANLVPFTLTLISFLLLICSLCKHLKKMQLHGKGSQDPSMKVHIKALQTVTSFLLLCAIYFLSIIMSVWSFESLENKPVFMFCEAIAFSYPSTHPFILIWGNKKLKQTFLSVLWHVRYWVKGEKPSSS
MEASUREMENT_DESCRIPTION: cell-based
Parameters: species or system AD-293; bioluminescence intracellular calcium release assay, mt-clytin II with coelenterazine, Gα16-gust44 co-expressed
MEASURED_PARAMETER: EC50 (nM)
Answer in nM, number only, no unit symbol.

# input Tell me EC50 reported for `O=C1C[C@@H]2OCC=C3CN4CC[C@]56c7ccccc7N1[C@H]5[C@H]2[C@H]3C[C@H]46`
# output 1200

====

TARGET_UNDER_TEST: TAS2R46 (Homo sapiens, UniProt P59540)
MEASUREMENT_DESCRIPTION: cell-based
Set-up: species or system 293AD; bioluminescence intracellular calcium release assay, mt-clytin II with coelenterazine, Gα16-gust44 co-expressed
MEASURED_PARAMETER: pEC50
Conceptually, pEC50 converts a concentration in mol/L into minus its log10.

# input Tell me pEC50 reported for `O=C1C[C@@H]2OCC=C3CN4CC[C@]56c7ccccc7N1[C@H]5[C@H]2[C@H]3C[C@H]46`
# output 6.51

====

TARGET_UNDER_TEST: UniProt P59534
MEASUREMENT_DESCRIPTION: cell-based
Parameters: bioluminescence intracellular calcium release assay, mt-clytin II with coelenterazine, Gα16-gust44 co-expressed
EXPERIMENTAL_CONDITIONS: 293AD cells
Method: The bioluminescence-based assay was used to characterize the functional properties of various human TAS2Rs. For each TAS2R, one or more of its cognate agonists were tested against either the AD-293 or 293AD cell line, or both. […] Consequently, some TAS2Rs may be well expressed in one cell line but not the other, and the ability of each cell line to express a particular TAS2R needs to be empirically evaluated. […]
MEASURED_PARAMETER: EC50 (µM)
Answer in µM, number only, no unit symbol.

# input Tell me EC50 reported for O=C(O[C@@H]1Cc2c(O)cc(O)cc2O[C@@H]1c1cc(O)c(O)c(O)c1)c1cc(O)c(O)c(O)c1 [Epigallocatechin gallate]
# output 141

====

TARGET_UNDER_TEST: TAS2R39 (Homo sapiens)
Sequence (P59534 1-338): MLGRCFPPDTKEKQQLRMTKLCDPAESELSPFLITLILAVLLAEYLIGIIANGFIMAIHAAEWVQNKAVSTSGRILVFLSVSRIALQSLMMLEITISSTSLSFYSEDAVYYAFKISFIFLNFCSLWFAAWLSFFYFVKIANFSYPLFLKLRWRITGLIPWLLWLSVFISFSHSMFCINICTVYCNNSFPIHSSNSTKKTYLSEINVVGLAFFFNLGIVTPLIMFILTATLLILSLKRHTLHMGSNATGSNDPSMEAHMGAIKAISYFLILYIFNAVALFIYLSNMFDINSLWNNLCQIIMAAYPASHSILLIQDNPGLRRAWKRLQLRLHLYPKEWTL
MEASUREMENT_DESCRIPTION: cell-based
Design: bioluminescence intracellular calcium release assay, mt-clytin II with coelenterazine, Gα16-gust44 co-expressed
EXPERIMENTAL_CONDITIONS: AD-293 cells
MEASURED_PARAMETER: pEC50
Conceptually, pEC50 converts a concentration in mol/L into minus its log10.

# input Tell me pEC50 reported for O=C(O[C@@H]1Cc2c(O)cc(O)cc2O[C@@H]1c1cc(O)c(O)c(O)c1)c1cc(O)c(O)c(O)c1 [Epigallocatechin gallate]
# output 3.44
